From: the nanobody polyreactivity screen of Harvey et al. (2022)

Assay: yeast display, Sf9 membrane polyspecificity reagent, FACS + sequencing; frameworks hold sequencing errors
measurementKind: polyreactivity (PSR sort gate)

seqString	measurementKind	result
QVQLVESGGGLVQAGGSLRLSCAASGRIFVYNAMGWYRQAPGKERELVATITSGGSTYYADSVKGRFTISRDNAKNTVYLQMNSLKPEDTAVYYCAARRWYVHYFAYGYWGQRTQVTVSS	polyreactivity (PSR sort gate)	low polyreactivity
QVQLVESGGGLVQAGGSLRLSCAASGPTFAKNTMGWYRQAPGKERELVAAISWRGGRTYYADSVKGRFTISRDNAKNTVYLQMNSLKPEDTAVYYCAAASTIHRHGMDYWGQGTQVTVSS	polyreactivity (PSR sort gate)	high polyreactivity
QVQLVESGGGLVQAGGSLRISCAASGSISSDNVMGWYRQAPGKERELVAAISSGTSTHYADSVKGSFTISRDNAKNTVYLQMNSLNQEDTAVYYCAAYFYRQYLYFLYEYDYWGQGTQVTVSS	polyreactivity (PSR sort gate)	low polyreactivity
QVQLVESGGGLVQAGGSLRLSCAASGRTFSKYAMGWYRQAPGKERELVAAISSGGSTNYADSVKGRFTISRDNAKNTVYLQMISLKPEDTAVYYFARTTNWRHSYAYYYLHGHDYWGQGTQVTVSS	polyreactivity (PSR sort gate)	high polyreactivity
QVQLVESGGGLVQAGGSLRLSCAASGSIISSYAMGWYRQAPGKEREFVAAISSSGDSTYADSVKGRFTISRDNAKNTVYVQMNSLKPEDTAVFYCAVGGAGSDDYWGQGSQVTVSS	polyreactivity (PSR sort gate)	low polyreactivity

Q: Fill in: polyreactivity (PSR sort gate) of QVQLVESGGGLVQAGGSLSLTCAASGSTFDWYAMRLYRQAPGKERELVAASTSGGSTYYADSVKGRFTISRDNAKITVYLQMNSLKPEDTAVYYCAAESRQVRYILYYYWGQGTQVTVSS is ___
Result: low polyreactivity

Q: Given QVQLVESGGGLVQAGGSLRLSCAASGFIFSSYAMAWYRQAPGKERDLVAAISKSGDRTSYADSVKGRFTISRDNAKNTVYLQMNSLKPEDTAVYYCAKDRLYRTKKYRDMYYWGQGTQVSVSS , state its recorded polyreactivity (PSR sort gate).
Result: high polyreactivity

Q: Endpoint output: polyreactivity (PSR sort gate) of QVHRVESGGGLVQAGGSLRVSCAATGINFSDYAMGWYRQEPGKERQLVAAITGGGSTYYADSVKGRFTISRDNAKNTVYLQMNSLKPEDTAVSYCNAVWARLWIRSTEVDYRGQGTQVTVSS . Value?
Result: low polyreactivity

Q: Which value of polyreactivity (PSR sort gate) has been reported for QVQLVESGGGLVQAGCSLRLSCAASGSTLFWYDMGWYRQAPGKERELVAAINWTGGSTYADSVKGRFTISRDNAKNTVYLQMNSLKPEDTAVYYCNADEYWASGYDPYDYWGQGTQVTVSS in the records?
Result: low polyreactivity

Q: // lookup polyreactivity (PSR sort gate) for QVQLVESGGGLVQAGGSLRISCAASGSTFSQYTMGWYRQAPGKERELVAAITWSGGRTYYADSVKGRFTISRDNAKNTVYLQMNSLKPEDTAVYYCNRDISGSSGGELDYWGQGTQVTVSS
Result: low polyreactivity

Q: Which polyreactivity (PSR sort gate) value belongs to QVQLVESGGGLVQAGGSLRLSSAGSGSIFRVYALGWYRQAPGKERELVAVISIAGRTNYADSVKGRFTISRDNAKNTVYLQMNSLKPEDTAVYYCNAGGDGVATGYDYWGQGTQVTVSS ?
Result: low polyreactivity

Q: # get_value(readout='polyreactivity (PSR sort gate)', item= QVQLVVSGGGLVQAGGSLRLSGAASGSIFWVYAMGWSRQAPGKELELVAAINWRGGSTYYADSVKGRFTISRDNAKNTVYLQKNSLKPEDTAVYNCAVQPNYYGMGYWGQGTQVTVSS )
Result: high polyreactivity

Q: Which value of polyreactivity (PSR sort gate) has been reported for QVQLVESGGVLVQAGGSLRLSCAASGSTFPWYAMGWYRPAPGKERELVAAITARGTRTYYADSVKGRFTISRDNAKNTVYLQMNILKPEDTAVYYCNAGISSRYDYWGQGTQVTVSS in the records?
Result: high polyreactivity

Q: State the recorded polyreactivity (PSR sort gate) for this entry: QVQLVESGGGLVQAGGTLRLSCAASGSTFVYNAMGWYRQAPGKERDLVATITGGGSTYYADSVKGRFTISRDNAKNTVYLQMNSLKPEDTAVYYCSKRRDSYDVEYDYWGQGTQVTVSS
Result: low polyreactivity

Q: I'd like to know its polyreactivity (PSR sort gate). The sequence in question is QVHLVESGGGLVQAGGSLRLSCAASGRTFPYNAMGWYRQAPGKERELVAAISWRGGSTYYADSVKGRFTISRDNAKNTVYLQMNSLKPEDTAVYYCNALYPVSYDHRGDYWGQGTQVTVSS
Result: high polyreactivity

Q: Data request, read-out polyreactivity (PSR sort gate), for QVQLVESGGGLVQAGGSLRLSCAASGRIFGWYAMGWYRQAPGKERELVAAISYSGGSTYADSVKGRFTISRDNAKYTVYLQMNSLKPEDTAVYYCAAYSSYYVHRFQHYDYWGQGTQVTVSS
Result: high polyreactivity

Q: polyreactivity (PSR sort gate) lookup needed for QVQLVESGGGLVQAGGSLRLSCAASGRTFGTYDMGWYRQAPGKERELVAGINGSGGSTYYADSVKGRFTISRDNAKNTVYLQMNSLKPEDTAVYYCAADRRFSTYDYWGQGTQVTVSS , thanks.
Result: high polyreactivity

Q: Form field: reported polyreactivity (PSR sort gate) of QVQLVESGGGLVQAGGSLRLSCAASGFTFYGYTMGWYRQAPGKERELVAAISRSGGRTYYADSVKGRFTISRDNAKNTVYLQMNSLKPEDTAVYYCAGDSRTNGYDYWGQGTQVTVSS
Result: high polyreactivity

Q: # query: polyreactivity (PSR sort gate) of entry QVQVVESGGGFVQAGGSLRISCAASGRIFATYAMGWYRQAPGKERELVAAISDSGGRTYYADSVKGRFTISRDTAKNTVYFQMNSLKPEDTAVYYCNARGTRASRYDYWGQGTQVTVSS
Result: high polyreactivity

Q: Recorded polyreactivity (PSR sort gate) for QDQLEESGGCLVQAGGSLRLSCAASGRIFYGYVMRWYRQAPGKERELVAAINQSGTSTYYADSVKGRFTISRDYAKNTVYLQMNSLKPEDTAVYYCAKDWAYRRHWVGFYYWGQGTQVTVSS , please?
Result: low polyreactivity

Q: Which polyreactivity (PSR sort gate) value belongs to QVQLVESGGGLVQAGGSLRLSCAASGRIFYGNAMGWYRQAPGKERELVAAITRGVSTYYADSVKGRFTISRDNAKNTVYLQMNSLKPEDTAVYYCAKDRRVRMDSWGQGTQVTVSS ?
Result: low polyreactivity

###

Experiment: yeast display, Sf9 membrane polyspecificity reagent, FACS + sequencing; frameworks hold sequencing errors
measurementKind: polyreactivity (PSR sort gate)

Recorded results for 4 sequences are shown here.
seqString	polyreactivity (PSR sort gate)
QVQLVESGGGLVQAGGSLRLSCAASGLTFTHYAMGWYRQAPGKEMELVAAISSGGRTYYADSVKGRFTISRDNAKNTVYLQMNSLKPEDTGVYYCAAVTTVYTKYGYWGQGTQVTVSS	high polyreactivity
QVQLVESGGGLVQAGGTLRLSCAASGRIFFTNAMRRYRQASGKESELVAAISKSGARTYYADSVKGRFTISRDNAKNTVYLQMNSLKPEDTAVYYCAGDVSVAGYYYWGEGTQVTVSS	high polyreactivity
QVQLVESGGGLVQAGGSLRLSCAASGRTSGFNTMGWYRQAPGKESELVAAISFSGGSTYYADSVKGRFTISRDNAKNTVYLHMNSLKPEDTAVYYCNALYRYLYRSGDYWGQGTQVTVSS	low polyreactivity
QVQLVESGGGLVQAGGSLRLSSAASGSTFLYYAMGWYRQAPGKERELVATITDGGSTNYADSVKGRFTISRDNAKNTVYLQMNSLKPEDTAVYYCATDSYHYSYGYSSLPEYDYWGQGTQVTVSS	low polyreactivity

Please find the next sequence below.
Q: Please look up its polyreactivity (PSR sort gate): QVQLVESGGGLVQAGGSLRLSCPASGSIFFYAMGWYRQAPGKERELVADITYTGGSKYADSVKGRFTISRDNAKNTVYLQMNSLKPEDTAFYYCANLDGGLFDYWGQGTQVTVSS
Result: low polyreactivity

###

Assay: yeast display, Sf9 membrane polyspecificity reagent, FACS + sequencing; frameworks hold sequencing errors

seqString	polyreactivity (PSR sort gate)
QVQHVESGGGLVQAGGSLRLSCAASGRIFSSNAMGWYRQAPGKERELVASITSGGNTNYADSVKGRFTISRDNAKNTVYLQMNSLKPEDTAVYYCAALSKTRCGYWGQGTQVTVSS	high polyreactivity
QVQLVESGGGLVQAGGSLRLSCAASGSIFDLNAMGWYRQAPGKERELVAAISSVGGTYYADSVKGRFTISRDNAKNTGYLQMNSLKPEDTAVYYCNRVTRWTYNYWGQGTQVTVSS	high polyreactivity
